Origin of the recorded values: patent US4783443A

tested on: Gram-negative and -positive bacteria; assay: Antibacterial activity, general trends of the MIC panel of Table I; type: cell-based; conditions: E. cloacae, all of the susceptible E. coli strains, H. influenzae 487, all of the S. aureus strains
ENDPOINT_NAME: sensitivity observed

{"COMPOUND": "N[C@@H](CCl)C(=O)OCC1=C(C(=O)O)N2C(=O)[C@@H](NC(=O)Cc3cccs3)[C@H]2SC1", "DATA_VALUE": "sensitivity was observed"}
{"COMPOUND": "C[C@H](N)C(=O)OCC1=C(C(=O)O)N2C(=O)[C@@H](NC(=O)Cc3cccs3)[C@H]2SC1", "DATA_VALUE": "no activity was seen"}
{"COMPOUND": "C[C@H](N)C(=O)N[C@@H](C)C(=O)OCC1=C(C(=O)O)N2C(=O)[C@@H](NC(=O)Cc3cccs3)[C@H]2SC1", "DATA_VALUE": "no activity was seen"}
{"COMPOUND": "N[C@@H](CCl)C(=O)N[C@@H](CCl)C(=O)OCC1=C(C(=O)O)N2C(=O)[C@@H](NC(=O)Cc3cccs3)[C@H]2SC1 [(e)]", "DATA_VALUE": "sensitivity was observed"}

* * *

system: Morganella morganii
Could you please report measured MIC for the items listed next?
Your answer is read as µM, so omit the unit and give the number.

Entry N[C@@H](CCl)C(=O)N[C@@H](CCl)C(=O)OCC1=C(C(=O)O)N2C(=O)[C@@H](NC(=O)Cc3cccs3)[C@H]2SC1 [(e)] : reported MIC = ?
50

Entry N[C@@H](CCl)C(=O)OCC1=C(C(=O)O)N2C(=O)[C@@H](NC(=O)Cc3cccs3)[C@H]2SC1 [(c)] : reported MIC = ?
100

Entry C[C@H](N)C(=O)N[C@@H](C)C(=O)OCC1=C(C(=O)O)N2C(=O)[C@@H](NC(=O)Cc3cccs3)[C@H]2SC1 [(d)] : reported MIC = ?
100

Entry C[C@H](N)C(=O)OCC1=C(C(=O)O)N2C(=O)[C@@H](NC(=O)Cc3cccs3)[C@H]2SC1 [(b)] : reported MIC = ?
100

* * *

system: Hemophilus influenzae 236; experiment: Minimum inhibitory concentration (MIC); assay type: cell-based; conditions: Haemophilus influenzae
ENDPOINT_NAME: MIC (µM)
Your answer is read as µM, so omit the unit and give the number.

Can you look up MIC on Hemophilus influenzae 236 for N[C@@H](CCl)C(=O)OCC1=C(C(=O)O)N2C(=O)[C@@H](NC(=O)Cc3cccs3)[C@H]2SC1 [(c)] ?
25

Can you look up MIC on Hemophilus influenzae 236 for N[C@@H](CCl)C(=O)N[C@@H](CCl)C(=O)OCC1=C(C(=O)O)N2C(=O)[C@@H](NC(=O)Cc3cccs3)[C@H]2SC1 [(e)] ?
25

Can you look up MIC on Hemophilus influenzae 236 for C[C@H](N)C(=O)N[C@@H](C)C(=O)OCC1=C(C(=O)O)N2C(=O)[C@@H](NC(=O)Cc3cccs3)[C@H]2SC1 [(d)] ?
50

Can you look up MIC on Hemophilus influenzae 236 for C[C@H](N)C(=O)OCC1=C(C(=O)O)N2C(=O)[C@@H](NC(=O)Cc3cccs3)[C@H]2SC1 [(b)] ?
50

* * *

tested on: Staphylococcus aureus PSL-15 Pen^R; experiment: Minimum inhibitory concentration (MIC); assay type: cell-based; details: possesses a betalactamase
Could you please report measured MIC for the items listed next?
Your answer is read as µM, so omit the unit and give the number.

Entry C[C@H](N)C(=O)OCC1=C(C(=O)O)N2C(=O)[C@@H](NC(=O)Cc3cccs3)[C@H]2SC1 : reported MIC = ?
100

Entry N[C@@H](CCl)C(=O)N[C@@H](CCl)C(=O)OCC1=C(C(=O)O)N2C(=O)[C@@H](NC(=O)Cc3cccs3)[C@H]2SC1 [(e)] : reported MIC = ?
1.56

Entry N[C@@H](CCl)C(=O)OCC1=C(C(=O)O)N2C(=O)[C@@H](NC(=O)Cc3cccs3)[C@H]2SC1 : reported MIC = ?
12.5

* * *

test system: Salmonella typhimurium
Could you please report measured MIC for the items listed next?

Entry C[C@H](N)C(=O)N[C@@H](C)C(=O)OCC1=C(C(=O)O)N2C(=O)[C@@H](NC(=O)Cc3cccs3)[C@H]2SC1 : reported MIC = ?
100 µM

Entry N[C@@H](CCl)C(=O)N[C@@H](CCl)C(=O)OCC1=C(C(=O)O)N2C(=O)[C@@H](NC(=O)Cc3cccs3)[C@H]2SC1 [(e)] : reported MIC = ?
50 µM

Entry C[C@H](N)C(=O)OCC1=C(C(=O)O)N2C(=O)[C@@H](NC(=O)Cc3cccs3)[C@H]2SC1 : reported MIC = ?
> 200 µM

Entry N[C@@H](CCl)C(=O)OCC1=C(C(=O)O)N2C(=O)[C@@H](NC(=O)Cc3cccs3)[C@H]2SC1 : reported MIC = ?
100 µM

* * *

test system: Corynebacterium JKM-4754; experiment: Minimum inhibitory concentration (MIC); type: cell-based; settings: JKM4754; Corynebacterium JKM-4754; resistant to cephalothin; read-out: Minimum Inhibitory Concentration
ENDPOINT_NAME: MIC

Entry C[C@H](N)C(=O)OCC1=C(C(=O)O)N2C(=O)[C@@H](NC(=O)Cc3cccs3)[C@H]2SC1 : reported MIC = ?
> 200 µM

Entry N[C@@H](CCl)C(=O)N[C@@H](CCl)C(=O)OCC1=C(C(=O)O)N2C(=O)[C@@H](NC(=O)Cc3cccs3)[C@H]2SC1 [(e)] : reported MIC = ?
3.12 µM

Entry N[C@@H](CCl)C(=O)OCC1=C(C(=O)O)N2C(=O)[C@@H](NC(=O)Cc3cccs3)[C@H]2SC1 : reported MIC = ?
> 200 µM

Entry C[C@H](N)C(=O)N[C@@H](C)C(=O)OCC1=C(C(=O)O)N2C(=O)[C@@H](NC(=O)Cc3cccs3)[C@H]2SC1 : reported MIC = ?
> 200 µM
